Biological target: KRAS G12D (Homo sapiens, UniProt P01116, G12D)
Construct: AsPc-1-KRAS (G12D)-HiBit-KI cell (Pharmaron); host or cells: AsPc-1-KRAS (G12D)-HiBit-KI cells (HiBiT knock-in at the endogenous KRAS locus)
Sequence (P01116 1-188 isoform P01116-2 G12D): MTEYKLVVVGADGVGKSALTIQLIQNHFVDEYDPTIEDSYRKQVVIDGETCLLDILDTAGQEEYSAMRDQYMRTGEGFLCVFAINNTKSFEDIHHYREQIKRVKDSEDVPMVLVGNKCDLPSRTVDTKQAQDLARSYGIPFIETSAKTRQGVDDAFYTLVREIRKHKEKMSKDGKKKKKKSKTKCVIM
Experiment: KRAS G12D HiBit assay
Assay type: cell-based
Details: AsPc-1-KRAS (G12D)-HiBit-KI cell, compound treatment for 24 hours; class symbols
assayReadout: Dmax

Worked examples, 3 compounds total:
[[record]]
compound = "C[C@H]1CN(CCOCCOc2ccc3c(c2)n(C)c(=O)n3C2CCC(=O)NC2=O)CCCN1c1nccc(-c2noc([C@@]3(C)CCCc4sc(N)c(C#N)c43)n2)n1 (some centres unmarked) [Compound 209]"
assayreadout = "Dmax"
result = "15 to 50%"

[[record]]
compound = "C#Cc1c(F)ccc2cc(O)cc(-c3ncc4c(N5CCCCCC5)nc(OC[C@@]56CCCN5[C@H](COC(=O)N5CCC(CN7CCC(c8ccc9c(c8)n(C)c(=O)n9C8CCC(=O)NC8=O)CC7)CC5)CC6)nc4c3F)c12 (some centres unmarked) [Compound 123]"
assayreadout = "Dmax"
result = "> 50%"

[[record]]
compound = "C#Cc1c(F)ccc2cc(O)cc(-c3ncc4c(N5CCCCCC5)nc(OCC5(CN6CCN(CC7CCN(c8ccc9c(c8)n(C)c(=O)n9C8CCC(=O)NC8=O)CC7)CC6)CC5)nc4c3F)c12 (centres unmarked) [Compound 16]"
assayreadout = "Dmax"
result = "> 50%"


Give Dmax for C#Cc1c(F)ccc2cc(O)cc(-c3ncc4c(N5CCCCC5)nc(OC[C@@]56CCCN5[C@H](COC(=O)N5CCC(CN7CCC(c8ccc9c(c8)n(C)c(=O)n9C8CCC(=O)NC8=O)CC7)CC5)CC6)nc4c3F)c12 (some centres unmarked) [Compound 122]
> 50%

Give Dmax for C#Cc1c(F)ccc2cccc(-c3ncc4c(N5CCC[C@@](C)(O)C5)nc(OC[C@@]56CCCN5[C@H](COC(=O)NCCOCCOCCOc5ccc7c(c5)n(C)c(=O)n7C5CCC(=O)NC5=O)CC6)nc4c3F)c12 (some centres unmarked) [Compound 108]
15 to 50%
